Recorded values, source patent US5217960A.

Here's what we have: MIC numbers for M[…] ATCC 9341.

compound	MIC, µg/mL
CC[C@H]1OC(=O)[C@H](C)[C@@H](O[C@H]2C[C@@](C)(OC)[C@@H](O)[C@H](C)O2)[C@H](C)[C@@H](O[C@@H]2O[C@H](C)C[C@H](N(C)C)[C@H]2O)[C@](C)(O)C[C@@H](C)[C@@H](N)[C@H](C)[C@@H](O)[C@@]1(O)CNCc1ccccc1 [Compound 14]	0.78
CC[C@H]1OC(=O)[C@H](C)[C@@H](O[C@H]2C[C@@](C)(OC)[C@@H](O)[C@H](C)O2)[C@H](C)[C@@H](O[C@@H]2O[C@H](C)C[C@H](N(C)C)[C@H]2O)[C@](C)(O)C[C@@H](C)[C@@H](N(C)C)[C@H](C)[C@@H](O)[C@@]1(O)CN(C)C [Compound 18]	0.2
CC[C@H]1OC(=O)[C@H](C)[C@@H](O[C@H]2C[C@@](C)(OC)[C@@H](O)[C@H](C)O2)[C@H](C)[C@@H](O[C@@H]2O[C@H](C)C[C@H](N(C)C)[C@H]2O)[C@](C)(O)C[C@@H](C)[C@@H](N(C)C)[C@H](C)[C@@H](O)[C@H]1CO [Compound 11]	0.78
CC[C@H]1OC(=O)[C@H](C)[C@@H](O[C@H]2C[C@@](C)(OC)[C@@H](O)[C@H](C)O2)[C@H](C)[C@@H](O[C@@H]2O[C@H](C)C[C@H](N(C)C)[C@H]2O)[C@](C)(O)C[C@@H](C)[C@@H](N(C)C)[C@H](C)[C@@H](O)[C@@]1(O)CNC [Compound 17]	1.56
CC[C@H]1OC(=O)[C@H](C)[C@@H](O[C@H]2C[C@@](C)(OC)[C@@H](O)[C@H](C)O2)[C@H](C)[C@@H](O[C@@H]2O[C@H](C)C[C@H](N(C)C)[C@H]2O)[C@](C)(O)C[C@@H](C)[C@@H](N(C)C)[C@H](C)[C@@H](O)[C@@]1(O)CO [Compound 10]	6.2

* * *

# Tested on: STAPHYLOCOCCUS AUREUS 1775
# experimental.protocol: In vitro antibacterial activity, agar dilution MIC
# Assay type: cell-based
# settings: S. aureus 1775, BHI agar, 35-37° C., 20 to 24 hours, read-out: MIC

structure.as.smiles	MIC
CC[C@H]1OC(=O)[C@H](C)[C@@H](O[C@H]2C[C@@](C)(OC)[C@@H](O)[C@H](C)O2)[C@H](C)[C@@H](O[C@@H]2O[C@H](C)C[C@H](N(C)C)[C@H]2O)[C@](C)(O)C[C@@H](C)[C@@H](N)[C@H](C)[C@@H](O)[C@@]1(O)CN	100 µg/mL
CC[C@H]1OC(=O)[C@H](C)[C@@H](O[C@H]2C[C@@](C)(OC)[C@@H](O)[C@H](C)O2)[C@H](C)[C@@H](O[C@@H]2O[C@H](C)C[C@H](N(C)C)[C@H]2O)[C@](C)(O)C[C@@H](C)[C@@H](N(C)C)[C@H](C)[C@@H](O)[C@@]1(O)CN(C)C	> 100 µg/mL
CC[C@H]1OC(=O)[C@H](C)[C@@H](O[C@H]2C[C@@](C)(OC)[C@@H](O)[C@H](C)O2)[C@H](C)[C@@H](O[C@@H]2O[C@H](C)C[C@H](N(C)C)[C@H]2O)[C@](C)(O)C[C@@H](C)[C@@H](N(C)C)[C@H](C)[C@@H](O)[C@@]1(O)CNC	> 100 µg/mL
